Origin of the recorded values: PubChem BioAssay

TARGET_OR_TEST_SYSTEM: Voltage-gated potassium channel subunit beta-2 (Rattus norvegicus) (UniProt P62483)
Sequence (P62483 whole entry, looked up): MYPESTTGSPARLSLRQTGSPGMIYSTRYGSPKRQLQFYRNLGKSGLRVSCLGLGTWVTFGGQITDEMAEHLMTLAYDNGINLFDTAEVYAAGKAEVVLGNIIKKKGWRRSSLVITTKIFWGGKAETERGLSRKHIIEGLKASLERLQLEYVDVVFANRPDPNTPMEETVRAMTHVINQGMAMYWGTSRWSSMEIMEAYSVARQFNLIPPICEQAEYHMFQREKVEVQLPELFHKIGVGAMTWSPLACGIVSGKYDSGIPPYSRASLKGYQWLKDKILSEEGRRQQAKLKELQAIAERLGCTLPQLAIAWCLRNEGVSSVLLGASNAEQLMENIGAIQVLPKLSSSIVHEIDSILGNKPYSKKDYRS
TEST_DESCRIPTION: inhibitors of rat Kvbeta2 reductase activity – biochemical, NADPH fluorescence, primary screen (AID 622);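 further: slope of raw intensity against log time taken from 70 to 1610 s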
ASSAY_CONDITIONS: recombinant KvBeta, 4-cyanobenzaldehyde reduction, at 10 µM
Activity calls are given as the source filed them.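 How the source made its calls: active means fluorescence slope higher than the sample average by over 3 SD (cut at about -0.22 in these data, passing the limit was not always enough); inactive means the rest.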
Classes used: active, inactive

[[record]]
molecule = "COc1cccc2cc(C(=O)Nc3cccnc3N3CCOCC3)c(=O)oc12"
category_label = "inactive"

[[record]]
molecule = "CC(C)(C)C(=O)Oc1cc(N)n(S(=O)(=O)c2ccccc2)n1"
category_label = "inactive"

[[record]]
molecule = "Cc1nc2ccc(S(=O)(=O)NCC(=O)O)cc2s1"
category_label = "inactive"

[[record]]
molecule = "COc1ccccc1N1CCN(CCCNC(=O)Nc2ccccc2)CC1"
category_label = "inactive"

[[record]]
molecule = "O=C(O)C1CC(=O)N(c2ccc(OCc3c(F)cccc3Cl)cc2)C1 (centres undefined)"
category_label = "inactive"

[[record]]
molecule = "COCCn1cc(C(=O)NCCCN2CCC(C)CC2)c2c3ccccc3n(C)c2c1=O"
category_label = "inactive"

[[record]]
molecule = "CCOC(=O)c1[nH]c2ccc(F)cc2c1NC(=O)C(C)N1CCc2cc(OC)c(OC)cc2C1 (centres undefined)"
category_label = "inactive"

[[record]]
molecule = "O=C(CN1C(=O)NC2(CCCCCC2)C1=O)N1CCC(Cc2ccccc2)CC1"
category_label = "inactive"

[[record]]
molecule = "Cc1cc(C(=O)Nc2cccc(O)c2)c(C)o1"
category_label = "inactive"

[[record]]
molecule = "CN(C)CCC(c1ccc(Br)cc1)c1ccccn1 (centres undefined)"
category_label = "inactive"

[[record]]
molecule = "CCOC(=O)c1nnn(CC(=O)Nc2cccc(OC)c2)c1C(=O)OCC"
category_label = "inactive"

[[record]]
molecule = "Oc1ccc(-c2onc(C(F)(F)F)c2-c2cscn2)c(O)c1"
category_label = "inactive"

[[record]]
molecule = "COc1ccccc1-c1coc2c(CN3CCN(CCO)CC3)c(O)ccc2c1=O"
category_label = "active"

[[record]]
molecule = "COc1cccc(-c2noc(CCC(=O)NC3CCCCC3)n2)c1"
category_label = "inactive"

[[record]]
molecule = "CCOc1ccccc1N1C(=O)CC(Sc2ncccc2C(=O)O)C1=O (centres undefined)"
category_label = "inactive"

[[record]]
molecule = "CN1CCN(C(=O)c2ccccc2N(Cc2ccccc2)S(C)(=O)=O)CC1"
category_label = "inactive"

[[record]]
molecule = "CCOC(=O)c1ccc(NCC(O)COc2ccccc2)cc1 (centres undefined)"
category_label = "inactive"

[[record]]
molecule = "c1ccc2c(c1)CCCC2C1=NCCN1 (centres undefined)"
category_label = "inactive"

[[record]]
molecule = "C=CCn1c(COc2ccccc2F)nnc1SCC(=O)N1CC(=O)Nc2ccccc21"
category_label = "inactive"

[[record]]
molecule = "Cn1nnnc1SCC(=O)NCc1ccco1"
category_label = "inactive"

[[record]]
molecule = "COc1ccc(OC)c(C2C3=C(CCCC3=O)Nc3c2c(=O)n(C)c(=O)n3C)c1 (centres undefined)"
category_label = "inactive"

[[record]]
molecule = "Cc1ccccc1-c1nc(CS(=O)(=O)CC(=O)N(C)C2CCCCC2)c(C)o1"
category_label = "inactive"

[[record]]
molecule = "O=c1c2c(nc3nc(CCc4ccccc4)[nH]n13)CCC2"
category_label = "inactive"

[[record]]
molecule = "COc1ccccc1OC(=O)c1ccc(SC)cc1OC"
category_label = "inactive"

